Overview of reported log10 Ki across a group of compounds:
assay: Inhibition of Porphyromonas gingivalis recombinant CA by CO2 hydration assay
Readout Name: log10 Ki (log10 of the value in µM)

Compound	log10 Ki
O=S(=O)([O-])[O-].[Na+].[Na+] [SODIUM SULFATE ANHYDROUS]	3.94
NS(N)(=O)=O [SULFAMIDE]	0.96
O=[N+]([O-])[O-].[Na+] [SODIUM NITRATE]	3.93
N=C=S [SODIUM ISOTHIOCYANATE]	1.97
O=S([O-])O.[Na+] [SODIUM BISULFITE]	3.97
O=C([O-])O.[Na+] [SODIUM BICARBONATE]	2.98
O=S(=O)(O)ONOS(=O)(=O)O [SODIUM IMINODISULFATE]	3.89
CCN(CC)C(=S)S [DITIOCARB SODIUM]	0.60
N=C=[Se] [SODIUM ISOSELENOCYANATE]	2.96
O=[Te](=O)(O)O [SODIUM TELLURATE]	4.22
OB(O)c1ccccc1 [PHENYLBORONIC ACID]	0.99
O=C([O-])[O-].[Na+].[Na+] [SODIUM CARBONATE]	2.95
O=NO [SODIUM NITRITE]	3.49
O=[As](O)(O)c1ccccc1 [PHENYLARSONIC ACID]	1.95
O=[Se](=O)(O)O [SODIUM SELENATE]	4.93
[N-]=[N+]=[N-] [SODIUM AZIDE]	1.86
[I-].[Na+] [SODIUM IODIDE]	3.94
[Br-].[Na+] [SODIUM BROMIDE]	2.96
NS(=O)(=O)O [SULFAMATE]	1.97
[Cl-].[Na+] [SODIUM CHLORIDE]	2.97
[F-].[Na+] [SODIUM FLUORIDE]	2.98
O=BOB(O)OB(O)OB=O [SODIUM TETRABORATE]	4.85
S=C(S)S [SODIUM CARBONOTRITHIOATE]	1.99
O=S(=O)(O)OOS(=O)(=O)O [SODIUM PERSULFATE]	3.94
S [SODIUM HYDROSULFIDE]	1.96

###

target: Carbonic anhydrase (Methanosarcina thermophila); test: Inhibition of Methanosarcina thermophila recombinant gamma-CA by CO2 hydration assay
Sequence (P40881 whole entry): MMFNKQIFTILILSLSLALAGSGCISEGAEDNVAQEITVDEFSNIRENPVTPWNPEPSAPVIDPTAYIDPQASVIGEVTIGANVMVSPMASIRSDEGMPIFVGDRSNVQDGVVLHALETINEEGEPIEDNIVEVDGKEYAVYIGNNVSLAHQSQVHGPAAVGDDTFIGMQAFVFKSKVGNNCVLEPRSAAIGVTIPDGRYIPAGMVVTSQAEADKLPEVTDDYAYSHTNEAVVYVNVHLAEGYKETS
pKi: −log10 of the molar value.
Overview of reported pKi across a group of molecules:
Readout Name: pKi

Molecule	Readout Name	Observed Value
O=C([O-])O.[Na+] [SODIUM BICARBONATE]	pKi	1.38
[I-].[Na+] [SODIUM IODIDE]	pKi	0.80
O=C([O-])[O-].[Na+].[Na+] [SODIUM CARBONATE]	pKi	2.17
O=S([O-])O.[Na+] [SODIUM BISULFITE]	pKi	1.93
N=C=S [SODIUM ISOTHIOCYANATE]	pKi	2.15
[Br-].[Na+] [SODIUM BROMIDE]	pKi	1.22
O=[N+]([O-])[O-].[Na+] [SODIUM NITRATE]	pKi	1.44
